Test system: Kasumi-1
Assay: CellTox Green cytotoxicity fluorescence relative to DMSO vehicle (fold of vehicle RFU); higher = more cell death (loss of membrane integrity), active = 2 or more
Conditions: 1 µM; 72 h
Classify by measured CellTox Green cytotoxicity fluorescence: Fulfilled if it is equal to or exceeds 1, Not fulfilled if it is smaller.

Solved entries:
• CCOC(=O)C1=C(N)Oc2ccc(Br)cc2C1C(C#N)C(=O)OCC (stereo unspecified) = Fulfilled
• N#CC(=Cc1ccc(-c2cc(Cl)ccc2Cl)o1)C(=O)Nc1cccc2ncccc12 = Not fulfilled
• CCCCNc1ncc2c(-c3ccc(CN4CCN(C)CC4)cc3)cn([C@H]3CC[C@H](O)CC3)c2n1 = Fulfilled

**Q:** Decide: CellTox Green cytotoxicity fluorescence of COc1ccc(C2=N[C@@H](c3ccc(Cl)cc3)[C@@H](c3ccc(Cl)cc3)N2C(=O)N2CCNC(=O)C2)c(OC(C)C)c1 >= 1?
**A:** Fulfilled

**Q:** Queued: CCOC(=O)c1[nH]c2cc(Cl)ccc2c1C(C(=O)NC(C)(C)C)N(C=O)Cc1ccc(Cl)cc1 (stereo unspecified)
**A:** Not fulfilled

* * *

System: Kasumi-1
Experiment: CellTox Green cytotoxicity fluorescence relative to DMSO vehicle (fold of vehicle RFU); higher = more cell death (loss of membrane integrity), active = 2 or more
Settings: 0.1 µM; 24 h
// label = Yes if CellTox Green cytotoxicity fluorescence is not less than 1, otherwise No

• CCCCNc1ncc2c(-c3ccc(CN4CCN(C)CC4)cc3)cn([C@H]3CC[C@H](O)CC3)c2n1 = Yes

**Q:** State whether the measured CellTox Green cytotoxicity fluorescence reaches 1, counting equality as reaching it, for C=CCc1cccc(/C=N/NC(=O)CN2CCN(Cc3ccccc3)CC2)c1O
**A:** No

**Q:** Same lookup for CC(C)c1ccccc1Cc1cc(C(=O)Nc2ccc(S(=O)(=O)c3ccccc3C(C)(C)C)cc2)c(O)c(O)c1O , please.
**A:** No

**Q:** Thanks! And COC(=O)[C@H](CCSC)NC(=O)c1ccc(NC[C@@H](N)CS)cc1-c1ccccc1 ?
**A:** No

**Q:** Another: CC(=O)N1c2ccc(-c3ccc(C(=O)O)cc3)cc2[C@H](Nc2ccc(Cl)cc2)C[C@@H]1C
**A:** Yes

**Q:** And the next one, COCC[n+]1c2c(n(Cc3cnccn3)c1C)C(=O)c1ccccc1C2=O [Sepantronium Bromide] ?
**A:** Yes

**Q:** Same thing, different compound: CCCC[C@@H](C=O)NC(=O)[C@H](CC(C)C)NC(=O)OCc1ccccc1 [Calpeptin]
**A:** No

**Q:** Now consider CN(C)CC[C@H](CSc1ccccc1)Nc1ccc(S(=O)(=O)NC(=O)c2ccc(N3CCN(Cc4ccccc4-c4ccc(Cl)cc4)CC3)cc2)cc1[N+](=O)[O-] .
**A:** Yes

**Q:** Next: CNC(=O)c1ccc(Nc2ncc(C(F)(F)F)c(NCc3nccnc3N(C)S(C)(=O)=O)n2)cc1 [Defactinib]
**A:** No

**Q:** Now consider CCOC(=O)C1=C(N)Oc2ccc(Br)cc2C1C(C#N)C(=O)OCC (stereo not given) .
**A:** No

* * *

The compounds listed here are annotated with their CellTox Green cytotoxicity fluorescence.
System: MV4-11
Assay: CellTox Green cytotoxicity fluorescence relative to DMSO vehicle (fold of vehicle RFU); higher = more cell death (loss of membrane integrity), active = 2 or more
Conditions: 0.01 µM; 72 h
A bare number is all that is needed in reply.

**Q:** I have this compound here, C/C(=N\NC(=O)c1cccc(S(=O)(=O)N2CCOCC2)c1)c1cc(Cl)ccc1O , and I need its recorded CellTox Green cytotoxicity fluorescence.
**A:** 0.966

**Q:** Proceed to CCS(=O)(=O)N1CCN(c2ccc(Nc3ncc(C(N)=O)c(NC4CC4)n3)cc2)CC1
**A:** 0.941

**Q:** And what about the compound COc1ccc(CCNCc2ccc(OCc3ccc(Cl)nc3)c(OC)c2)cc1OC ?
**A:** 0.996

**Q:** And CN[C@@H](C)C(=O)N[C@H](C(=O)N1CCC[C@H]1C(=O)Nc1snnc1-c1ccccc1)C1CCCCC1 ?
**A:** 0.974

**Q:** Queued: COc1cc(C(=O)O)ccc1NC(=O)[C@@H]1N[C@@H](CC(C)(C)C)[C@](C#N)(c2ccc(Cl)cc2F)[C@H]1c1cccc(Cl)c1F
**A:** 0.97

**Q:** Next record, please: COc1nc(OCc2cccc(-c3ccccc3)c2C)ccc1CNCCNC(C)=O
**A:** 1

**Q:** Moving on to the next compound: COCC[n+]1c2c(n(Cc3cnccn3)c1C)C(=O)c1ccccc1C2=O [Sepantronium Bromide]
**A:** 0.957
